The measurements presented in this section are drawn from PubChem BioAssay (NCI).

Catalogue of compounds with associated growth
Test system: HCT-15 colon
TEST: NCI-60 one-dose screen, 48 h (100 = growth as untreated, 0 = no growth, -100 = all killed)
RUN PARAMETERS: 10 µM unless noted
About 83,000 compounds went through this panel and 20% of them were active in at least one assay; those are over-represented in the sample as a whole. Active and inactive are the calls of the source. How the source made its calls: active means growth percent below 10; inactive means the rest.
REPORTED METRIC: growth

1) CCN(CC)c1ccc(/C=C2\Oc3ccc(O)c(I)c3C2=O)cc1 = 37% (inactive)
2) COc1ccc(NC(=O)CSc2nc(-c3ccc(OC)c(OC)c3)cc(-c3cc(OC)c(OC)c(OC)c3)n2)cc1 = 100% (inactive)
3) COc1ccc(Nc2[nH]n3c(=O)cc(C)nc3c2C(N)=O)c(OC)c1 = 102% (inactive)
4) Cc1ccc(-c2nc(C#N)c(S(=O)(=O)n3nc(-c4ccccc4)cc3N)o2)cc1 = 67.6% (inactive)
5) Cc1cc(N/N=C/c2nc(-c3ccc(Br)cc3)oc2C)c2cc(Cl)ccc2n1 = 37.9% (inactive)
6) Nc1cc2c(cc1C(=O)c1cccc(F)c1)OCCO2 = 93.9% (inactive)
7) O=C1c2c(c3c4ccccc4n(CCCCCCBr)c3c3[nH]c4ccccc4c23)C(=O)N1O = 7.75% (active)
8) O=[N+]([O-])c1ccc(OCCCOc2ccccc2)cc1 = 99.4% (inactive)
9) ClC(Cl)c1nc(-c2ccccc2)nc2cc(-c3ccccc3)nn12 = 7.78% (active)
10) COc1ccc(S(=O)(=O)NCCCNc2nccc(-c3c(-c4cccc([N+](=O)[O-])c4)nc4sccn34)n2)cc1 = 30.9% (inactive)

* * *

Test system: A498 renal
TEST: NCI-60 one-dose screen, 48 h
RUN PARAMETERS: 10 µM unless noted
Description: Growth inhibition of the A498 human tumor cell line is measured as a screen for anti-cancer activity. Cells are grown in 96 well plates and exposed to the test compound for 48 hours. Compounds are tested at a single concentration, which is 10^-5 M for most compounds. The reported endpoint is percent growth (GI% or GIPRCNT), where numbers from 0 - 100% represent growth inhibition, and numbers from -100% - 0 represent cell death. For example, a value of 40 represents 60% growth inhibition. […]
Compounds without any hit were thinned out: in the full panel of roughly 83,000, 20% have a hit. Active and inactive are the calls of the source. The calls were made as follows: active = growth percent below 10; inactive = the rest.
Classes used: 1.0 = active, 0.0 = inactive

1. COc1ccc(S(=O)(=O)NCCCNc2nccc(-n3ccc4cccnc43)n2)cc1 = 0.0
2. CCN(CC)CCC(CNc1ccnc2cc(Cl)ccc12)c1ccccc1 (stereo not given) = 0.0
3. C=CCn1cc(-c2nc3ccccc3s2)c2cc(-c3ccc4c5c(cccc35)C(=O)N(CCN3CCNCC3)C4=O)ccc21 = 0.0
4. COc1cccc(CC(C)=C(c2ccc(OCCN(C)C)cc2)c2ccc(OCCN(C)C)cc2)c1 = 0.0
5. CC(=O)Nc1scc[n+]1Cc1ccccc1 = 0.0
6. O=C(Nc1cccc(-n2cc(-c3ccncc3)c(-c3ccc(Cl)c(O)c3)n2)c1)c1ccc(N2CCOCC2)c(C(F)(F)F)c1 = 0.0
7. CCOC(=O)C1C(=O)C=C(c2ccc(OC)cc2)CC1c1sc(N(C)Cc2ccccc2)nc1Cl (stereo not given) = 0.0
8. COc1cc(/C=C/C(=O)/C=C/c2cc(OC)c3c(c2)OCO3)cc2c1OCO2 = 0.0
9. COc1ccc(-c2cc(-c3ccccc3)nc(SCCCC(=O)NO)n2)cc1OC = 1.0
10. Fc1ccc(Nc2ncnc3ccc(-c4cnc5[nH]ccc5c4)cc23)cc1Cl = 0.0
11. CCOC(=O)C1CCNC(=O)C1=O (stereo not given) = 0.0
12. O=[N+]([O-])c1ccc(Sc2ncccn2)c([N+](=O)[O-])c1 = 0.0
13. COc1cccc(CC(C)=C(c2ccc(OCCN3CCCCC3)cc2)c2ccc(OCCN3CCCCC3)cc2)c1 = 1.0
14. C=C1CCC2C3(C)COC(C)(C)OC3CCC2(C)C1C/C=C1/C(=O)OCC1Oc1ccccc1OC (stereo not given) = 0.0
15. Clc1cccc(-c2cc(-c3ccc4c(c3)OCCO4)[nH]n2)c1 = 1.0
16. COP(=O)(OC)/C(=N\NS(=O)(=O)c1ccc(C)cc1)c1ccccc1 = 0.0
17. Cc1nc2cncc(C#Cc3cncc(C(=O)Nc4ccc(CN5CCN(C)CC5)c(C(F)(F)F)c4)c3)c2nc1C = 1.0
18. Nc1cccc(-c2nc3sccn3c2-c2ccnc(NCCCNS(=O)(=O)c3cccc4ccccc34)n2)c1 = 0.0
19. COc1ccc(-c2cnnn2-c2nonc2-n2cccc2)cc1OC = 0.0
20. Cc1ccc(S(=O)(=O)n2cc(C(=O)C(=O)Nc3ccncc3)c3ccccc32)cc1 = 0.0
